- test method notes: binders of probe aFGF2 on microarray, primary screen, stem cell growth factor project, biochemical, small-molecule microarray, fluorescence 635/667 (AID 1067);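 note: measures binding of biotinylated aFGF2 protein to printed compounds on slides; z-score merges feature fluorescence and signal-to-noise across triplicate slides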
- stated conditions: higher = more signal
Each entry below lists one item and its recorded composite z-score value.
Please reply with the number alone, leaving off any unit.

Cc1ccc(S[C@]2(C(=O)NCC(C)C)CC(=O)N(C3Cc4ccccc4C3)[C@@H]2c2ccc(CO)cc2I)cc1 | -0.0238

Now, please, on to the next compound.
Problem: Sample "NC(=O)[C@H]1[C@@H]2C(=O)O[C@@H](c3ccccc3)[C@@H](c3ccccc3)N2[C@@H](c2ccc(O)cc2)[C@]12C(=O)Nc1ccccc12" — what was its composite z-score?
Solution: -0.128
